Reported pEC50 values are given for each entry in this list.
Target: T1, human IL-17A (human, UniProt Q16552 24-155)
T1 construct: Recombinant; biotinylated in the ELISA; also called hIL-17; hIL17A
T1 sequence (Q16552 24-155): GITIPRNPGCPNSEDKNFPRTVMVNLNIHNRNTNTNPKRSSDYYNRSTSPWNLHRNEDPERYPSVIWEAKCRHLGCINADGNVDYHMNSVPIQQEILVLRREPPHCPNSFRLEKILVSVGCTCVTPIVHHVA
Experiment: hIL17A ELISA
pEC50: −log10 of the molar value.

Binder: IL17-h10F7.4 (antibody, V domains shown, IgG; constant regions not specified) VH: QVQLQQSGAELVRPGTSVTLSCKASGYIFTDYEIHWVKQTPVHGLEWIGVNDPESGGTFYNQKFDGKAELTADKSSSTAYMELRSLTSEDSGVYYCTRYYRYESFYGMDYWGQGTSITVSS VL: DIQLTQSPSSLSASVGDRVTITCSASSSISYIYWFQQKPGKSPKRWIYATFELASGVPSRFSGSGSGTDYTLTISSLQPEDFATYYCHQRSSYPWTFGQGTKLEIKR
pEC50: 10.40
--
Binder: IL17-h5C5.5 (antibody, V domains shown, IgG; constant regions not specified) VH: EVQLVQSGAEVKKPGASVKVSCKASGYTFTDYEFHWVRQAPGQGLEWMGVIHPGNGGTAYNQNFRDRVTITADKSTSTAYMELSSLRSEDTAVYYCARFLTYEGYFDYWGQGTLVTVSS VL: DIQMTQSPSSLSASVGDRVTITCKASQSVSIDVGWYQQKPGKAPKLLIYHASNRYTGVPSRFSGSGSGTDFTFTISSLQPEDFATYYCQQDYSSPYTFGQGTKLEIKR
pEC50: 10.30
--
Binder: IL17-h5C5.7 (antibody, V domains shown, IgG; constant regions not specified) VH: QVQLQQSGAELVRPGASVKLSCKALGYTFTDYEFHWVKQTPVHGLEWIGVIHPGNGGTAYNQNFRDKATLTADKSSSTAYMELSSLTSEDSGVYYCTRFLTYEGYFDYWGQGTALTVSS VL: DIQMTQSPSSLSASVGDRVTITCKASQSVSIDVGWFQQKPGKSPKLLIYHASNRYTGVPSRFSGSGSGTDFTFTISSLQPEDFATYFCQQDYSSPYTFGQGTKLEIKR
pEC50: 10.52
--
Binder: IL17-h10F7.12 (antibody, V domains shown, IgG; constant regions not specified) VH: EVQLVQSGAEVKKPGSSVKVSCKASGYTFTDYEIHWVRQAPGQGLEWMGVNDPESGGTFYNQKFDGRVTITADKSTSTAYMELSSLRSEDTAVYYCARYYRYESFYGMDYWGQGTTVTVSS VL: QIVLTQSPSSLSASVGDRVTITCSASSSISYIYWFQQKPGKSPKRWIYATFELASGVPSRFSGSGSGTDYTLTISSLQPEDFATYYCHQRSSYPWTFGQGTKLEIKR
pEC50: 9.85
--
Binder: IL17-h10F7.6 (antibody, V domains shown, IgG; constant regions not specified; also called h10F7.6 (VH.1a-Vk.1a)) VH: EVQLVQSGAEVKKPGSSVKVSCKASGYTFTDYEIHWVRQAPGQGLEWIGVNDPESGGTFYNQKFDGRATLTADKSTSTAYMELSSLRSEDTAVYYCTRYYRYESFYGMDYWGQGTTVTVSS VL: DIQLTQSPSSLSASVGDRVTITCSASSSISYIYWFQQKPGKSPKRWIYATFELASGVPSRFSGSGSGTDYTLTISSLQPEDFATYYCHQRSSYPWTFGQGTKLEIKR
pEC50: 10.30
--
Binder: IL17-h5C5.13 (antibody, V domains shown, IgG; constant regions not specified) VH: QVQLQQSGAELVRPGASVKLSCKALGYTFTDYEFHWVKQTPVHGLEWIGVIHPGNGGTAYNQNFRDKATLTADKSSSTAYMELSSLTSEDSGVYYCTRFLTYEGYFDYWGQGTALTVSS VL: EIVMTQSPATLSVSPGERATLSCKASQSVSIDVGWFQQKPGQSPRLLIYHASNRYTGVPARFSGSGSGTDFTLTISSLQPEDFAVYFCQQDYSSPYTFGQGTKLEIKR
pEC50: 10.52
--
Binder: IL17-h10F7.13 (antibody, V domains shown, IgG; constant regions not specified) VH: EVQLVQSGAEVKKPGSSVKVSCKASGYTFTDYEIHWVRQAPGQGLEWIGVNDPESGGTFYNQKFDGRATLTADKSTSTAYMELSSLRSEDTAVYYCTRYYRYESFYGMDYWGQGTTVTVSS VL: QIVLTQSPSSLSASVGDRVTITCSASSSISYIYWFQQKPGKSPKRWIYATFELASGVPSRFSGSGSGTDYTLTISSLQPEDFATYYCHQRSSYPWTFGQGTKLEIKR
pEC50: 10.00

Reference for the values: patent US20140348834A1
